Hello, the source for this data is ChEMBL document CHEMBL2034972, in case you need it.

measurement protocol: Metabolic stability of the compound in human liver microsomes assessed as compound remaining after 60 mins
Assay type: ADME, Microsome
run conditions: read-out: Stability
parameter measured: remaining at 1 h (%)
Numbers only, in %.

Entry under test: `CCc1ccc(C(=O)NC(=O)c2ccccc2O)cc1` . Its remaining at 1 h was 53

###

target or test system: CYP3A4 (Homo sapiens)
Sequence (P08684 whole entry): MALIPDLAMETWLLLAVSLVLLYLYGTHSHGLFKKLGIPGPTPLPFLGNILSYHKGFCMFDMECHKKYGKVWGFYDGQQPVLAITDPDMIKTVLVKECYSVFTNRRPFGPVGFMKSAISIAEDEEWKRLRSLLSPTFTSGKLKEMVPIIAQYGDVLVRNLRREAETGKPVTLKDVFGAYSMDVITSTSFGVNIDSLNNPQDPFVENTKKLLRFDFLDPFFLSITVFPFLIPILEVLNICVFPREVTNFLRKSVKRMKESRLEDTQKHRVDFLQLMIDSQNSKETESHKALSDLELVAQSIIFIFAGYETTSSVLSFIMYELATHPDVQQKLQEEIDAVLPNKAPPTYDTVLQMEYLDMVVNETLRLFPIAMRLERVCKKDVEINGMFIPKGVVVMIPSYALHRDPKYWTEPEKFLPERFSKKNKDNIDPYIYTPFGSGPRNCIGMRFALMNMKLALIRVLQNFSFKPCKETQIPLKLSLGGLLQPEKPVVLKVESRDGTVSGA
measurement protocol: Inhibition of CYP3A4 at 10 uM
Type: ADME
parameter measured: inhibition at 10 µM (%)
Give bare numbers, in %.

Per the records, this molecule ( `CCc1ccc(C(=O)NC(=O)c2ccccc2O)cc1` ) has inhibition at 10 µM equal to 71

###

measurement protocol: Aqueous solubility of the compound in phosphate based buffer at pH 4
Type: physicochemical
parameter measured: solubility

Sample `CCc1ccc(C(=O)NC(=O)c2ccccc2O)cc1` ; solubility observed: 2.76 µM
